TARGET: Perilipin-5 (Homo sapiens) + 1-acylglycerol-3-phosphate O-acyltransferase ABHD5 (Homo sapiens) (UniProt Q00G26+Q8WTS1)
Sequence (Q00G26 whole entry, looked up): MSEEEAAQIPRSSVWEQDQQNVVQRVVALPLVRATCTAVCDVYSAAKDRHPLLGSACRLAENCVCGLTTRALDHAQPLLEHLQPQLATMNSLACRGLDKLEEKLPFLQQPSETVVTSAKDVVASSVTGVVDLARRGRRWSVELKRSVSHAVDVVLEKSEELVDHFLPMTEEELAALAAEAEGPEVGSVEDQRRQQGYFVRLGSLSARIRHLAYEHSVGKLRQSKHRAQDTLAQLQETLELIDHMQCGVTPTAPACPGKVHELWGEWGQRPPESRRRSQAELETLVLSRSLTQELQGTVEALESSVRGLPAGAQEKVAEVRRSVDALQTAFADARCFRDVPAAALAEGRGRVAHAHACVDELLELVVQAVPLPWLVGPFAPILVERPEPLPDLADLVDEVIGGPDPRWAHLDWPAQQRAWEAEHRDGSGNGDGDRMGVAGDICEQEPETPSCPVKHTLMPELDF
Sequence (Q8WTS1 whole entry, looked up): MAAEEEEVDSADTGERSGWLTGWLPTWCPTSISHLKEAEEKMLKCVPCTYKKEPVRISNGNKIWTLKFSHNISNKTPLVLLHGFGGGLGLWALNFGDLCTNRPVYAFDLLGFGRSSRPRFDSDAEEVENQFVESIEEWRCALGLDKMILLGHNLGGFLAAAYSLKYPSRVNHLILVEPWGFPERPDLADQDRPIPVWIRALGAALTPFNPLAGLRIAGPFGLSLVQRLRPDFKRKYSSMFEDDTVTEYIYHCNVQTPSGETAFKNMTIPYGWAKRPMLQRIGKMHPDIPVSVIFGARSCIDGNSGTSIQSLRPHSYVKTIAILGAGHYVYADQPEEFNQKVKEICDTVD
PROTOCOL_TEXT: ABHD5-PLIN5 interaction inhibitors, primary screen, cell lysate, split luciferase complementation, luminescence (AID 602281);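 further: 0% = DMSO only wells and the 100% control is not disclosed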
TEST_PARAMETERS: Split G. princeps luciferase complementation, 4 h, at 4 µM
Hit rate of the full screen: of about 360,000 compounds, about 2,900 (0.81%) were called active.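 How the source made its calls: active means inhibition above the mean inhibition across every tested compound plus 3 SD (cut at about 22% in these data); inactive means the rest.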 The list comes from a sample in which actives are over-represented; it also holds close analogues and randomly drawn compounds.
Please answer using one outcome listed in True = active, False = inactive

These solved cases illustrate the format of a correct answer.
MOLECULE	LABEL_CLASS
CN(CC1CCCN(CCc2cccc(C(F)(F)F)c2)C1)C(=O)c1ccc2nc[nH]c2c1 (configuration not stated)	False
CN(C)CCOc1cccc(Br)c1	False
CCN1CCN(CCNC(=O)c2ccc3c(c2)NC(=O)/C(=C\c2cccc(Cl)c2)S3)CC1	False
Cc1cccc(C=CC(=O)c2ccc(Cl)cc2)c1	True
O=C1C=CC(=O)N1c1ccc(N2CCCCC2)cc1	True

[ask] Outcome? Cc1cc(C)nc(S/C=C/C(=O)c2ccccc2)n1
[reply] True

[ask] Hey, what did the test say about CSc1nc(N(C)NC(=O)c2cccc(C)c2)c2ccccc2n1 ?
[reply] False

[ask] Per the records of this test, what outcome belongs to NC(=O)COc1ccc(C23CC4CC(CC(C4)C2)C3)cc1 ?
[reply] False

[ask] Which outcome was entered for the molecule Cc1ccc(SC(C)C(=O)NCc2ccc(F)cc2)cc1 (configuration not stated) in this test?
[reply] False

[ask] Which outcome did this test record for the molecule CC1=C(C(=O)N2CCOCC2)CC(CC(=O)NCc2ccco2)C(=O)N1Cc1ccc(F)cc1 (configuration not stated) ?
[reply] False

[ask] Called result for COc1ccc(-c2cc3n(n2)CCc2nc4ccccc4n2-3)cc1
[reply] False

[ask] # lookup: test call for COc1ccc(C(=O)/C=C/Nc2ccccn2)cc1
[reply] False

[ask] Hi, do you know how CCOc1ccc(NC(=O)C(C)N2C(=O)c3ccccc3C2=O)cc1 (configuration not stated) came out in this test?
[reply] False

[ask] Per the records of this test, what outcome belongs to O=C1/C(=C\c2ccc([N+](=O)[O-])cc2)CS(=O)(=O)C/C1=C/c1ccc([N+](=O)[O-])cc1 ?
[reply] True

[ask] Write down the call the test reported for this molecule. Item: Cc1cc(C)n(CC(C)NCc2c(C(=O)N3CCOCC3)nc3c(C)cccn23)n1 (configuration not stated)
[reply] False

[ask] Call for entry CN(C)c1cc(N)c2ccccc2n1 (tested in a mixture with another compound) :
[reply] False

[ask] Kindly provide the recorded test outcome for the following molecule: O=C(Cc1ccccc1)N1CCN(S(=O)(=O)c2ccc([N+](=O)[O-])cc2)CC1
[reply] False

====

TARGET: Perilipin-5 (Homo sapiens) + 1-acylglycerol-3-phosphate O-acyltransferase ABHD5 (Homo sapiens) (UniProt Q00G26+Q8WTS1)
PROTOCOL_TEXT: ABHD5-PLIN5 interaction inhibitors, primary screen, cell lysate, split luciferase complementation, luminescence (AID 602281);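 further: 0% = DMSO only wells and the 100% control is not disclosed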
TEST_PARAMETERS: Split G. princeps luciferase complementation, 4 h, at 4 µM, hits give high values
The campaign covered roughly 360,000 compounds. About 2,900 (0.81%) were called active. This is one part of a sample in which actives are shown more often than they occur.
PROPERTY_MEASURED: inhibition (%)
Please state the figure in %; there is no need to write the unit.

COMPOUND	inhibition (%)
COc1cc(C(O)c2nc(-c3cccc(C(=O)O)c3)cs2)ccc1F (configuration not stated)	7.06
COC(C[C@@H](O)[C@H](C)[C@H](O)COCc1ccccc1)OC	-4.38
Cc1[nH]c2ccccc2c1C(=O)c1cc([C@H](NC(=O)OC(C)(C)C)C(C)C)sc1N	-16.6

Sample CN1CCC[C@@H]1CCO[C@](C)(c1ccccc1)c1ccc(Cl)cc1 ; inhibition observed: 24.5

Form field inhibition, entry C=C(C)C(=O)Nc1cccc(C2=NOC3(C2)C[C@H](C(N)=O)N(C(=O)C(c2ccccc2)c2ccccc2)C3)c1 (some centres not stated) : 0.12

Entry source: PubChem BioAssay AID602281
